assay-comment: chemical genetic growth profiling, strain panel (AID 1159580);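 further: tested at 20 µM; growth read once vehicle control cultures reached saturation at 30 °C; 1 = growth at the plate median or of vehicle wells; lower values mean less growth of the strain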
condition-parameters: S. cerevisiae deletion strains, growth OD, locus YHR129C, strain ARP1, stronger effect = lower value
Hit rate of the full screen: of about 5,500 compounds, about 2,000 (36%) were called active. Another 18% or so got no clear call; they are omitted. The list shows a part of the results.
assay-endpoint: normalized growth
Reply with just the number.

As a guide, the following entries are already answered.
1) COC(=O)C1=CO[C@@H](O[C@@H]2O[C@H](CO)[C@@H](O)[C@H](O)[C@H]2O)[C@@H]2[C@@H](C)[C@@H](O)C[C@H]12 :: 1
2) COc1ccc2ccc(=O)oc2c1CC=C(C)C :: 0.741
3) CCNc1nc(Cl)nc(NC(C)C)n1 :: 1.01
4) NCCS :: 1.01
5) O=c1c(-c2ccc3c(c2)OCO3)coc2cc(O)ccc12 :: 1

# evaluate next
Request: normalized growth for `CC1(C)S[C@@H]2[C@H](NC(=O)COc3ccccc3)C(=O)N2[C@H]1C(=O)O` ?
Result: 1
